- target: Aurora kinase A (Homo sapiens, UniProt O14965)
- Sequence (O14965 whole entry): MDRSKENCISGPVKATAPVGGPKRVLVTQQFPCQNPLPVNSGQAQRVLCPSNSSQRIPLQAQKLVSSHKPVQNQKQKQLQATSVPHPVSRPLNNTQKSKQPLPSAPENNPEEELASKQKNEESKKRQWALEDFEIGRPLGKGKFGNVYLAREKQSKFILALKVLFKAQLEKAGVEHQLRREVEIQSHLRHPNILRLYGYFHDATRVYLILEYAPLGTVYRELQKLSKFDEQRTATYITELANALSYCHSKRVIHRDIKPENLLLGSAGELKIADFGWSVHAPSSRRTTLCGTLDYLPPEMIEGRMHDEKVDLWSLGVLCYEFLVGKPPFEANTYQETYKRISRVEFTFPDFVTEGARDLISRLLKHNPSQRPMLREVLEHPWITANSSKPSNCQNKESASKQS
- method.description: Inhibition of Aurora A ATP-binding site assessed as inhibition of [gamma-33P]ATP incorporation into substrate by scintillation counting
Output Criterion met for records whose IC50 is lower than 4 nM, Criterion not met for records at or above 4 nM.

A selection of reference data follows.
- CCCCN(C)c1nc(NCCc2ccccc2OC)nc(NC(Cc2c[nH]c3ncccc23)C(N)=O)n1 (stereo not given): Criterion met
- CNc1nc(NCCc2ccccc2OC)nc(Nc2ccc3ncccc3c2)n1: Criterion not met
- COc1ccccc1CCNc1nc(NC(Cc2c[nH]c3ncccc23)C(N)=O)nc(N(C)[C@@H](C)c2ccccc2)n1 (stereo not given in full): Criterion not met
- CCCCN(C)c1nc(NCCc2ccccc2OC)nc(NCCc2c[nH]c3ncccc23)n1: Criterion met

// next entry
Asked: Hello, is IC50 of the following compound strictly smaller than 4 nM? COc1ccccc1CCNc1nc(Nc2ccc3ncccc3c2)nc(NC(Cc2c[nH]c3ncccc23)C(N)=O)n1 (stereo not given)
Given back: Criterion met

Reference source for all entries: ChEMBL document CHEMBL1212727
